molecular target: EPHB2 (UniProt P29323); test: phosphorylation enrichment, bacterial display (enrichment ratio); higher = better substrate or ligand; peptides without Tyr show the background;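 also: 11-residue human phosphosite peptides and single-mutation variants displayed on the E. coli surface, counted by deep sequencing, each peptide's frequency after selection divided by its frequency in the unselected input library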;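 also: frequency after pTyr selection over input frequency; kinase dosed for 20-30% of maximal phosphorylation in three min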
Sequence (P29323 whole entry, looked up): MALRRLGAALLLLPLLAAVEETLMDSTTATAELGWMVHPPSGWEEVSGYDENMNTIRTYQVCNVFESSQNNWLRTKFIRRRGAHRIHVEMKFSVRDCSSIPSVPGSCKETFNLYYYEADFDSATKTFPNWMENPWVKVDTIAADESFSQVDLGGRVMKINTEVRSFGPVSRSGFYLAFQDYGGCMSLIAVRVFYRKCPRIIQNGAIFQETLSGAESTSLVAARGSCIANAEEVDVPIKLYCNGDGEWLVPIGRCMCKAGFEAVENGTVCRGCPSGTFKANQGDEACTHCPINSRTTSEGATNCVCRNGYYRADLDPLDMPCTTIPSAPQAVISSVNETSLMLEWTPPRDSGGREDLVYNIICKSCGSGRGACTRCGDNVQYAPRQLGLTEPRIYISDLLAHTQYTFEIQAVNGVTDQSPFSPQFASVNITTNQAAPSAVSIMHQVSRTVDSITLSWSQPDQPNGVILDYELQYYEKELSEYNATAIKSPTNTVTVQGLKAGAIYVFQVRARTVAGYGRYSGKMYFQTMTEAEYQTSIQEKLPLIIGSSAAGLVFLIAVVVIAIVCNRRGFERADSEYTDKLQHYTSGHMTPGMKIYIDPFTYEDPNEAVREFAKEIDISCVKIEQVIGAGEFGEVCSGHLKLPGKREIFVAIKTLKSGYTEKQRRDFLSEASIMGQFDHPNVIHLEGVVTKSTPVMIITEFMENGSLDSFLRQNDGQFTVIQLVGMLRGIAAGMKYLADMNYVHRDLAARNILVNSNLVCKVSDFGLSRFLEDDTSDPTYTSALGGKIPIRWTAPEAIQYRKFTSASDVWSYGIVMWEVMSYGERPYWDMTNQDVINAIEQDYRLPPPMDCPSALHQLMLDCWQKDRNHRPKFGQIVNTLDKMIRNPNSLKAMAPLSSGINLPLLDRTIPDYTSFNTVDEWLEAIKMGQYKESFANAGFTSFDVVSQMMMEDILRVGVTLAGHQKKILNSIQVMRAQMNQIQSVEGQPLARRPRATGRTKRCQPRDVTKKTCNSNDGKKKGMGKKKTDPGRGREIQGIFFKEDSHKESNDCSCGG

record.sequence	phosphorylation enrichment
EQKKYYNAVKK [SCN5A_Y1495_M1498V]	0.34
NSIGNYFKPWF [DHCR24_Y299_YF]	5.26
VNKLVYENING [FRS2_Y306]	0.75
ASSPVYVPTTR [GATA6_Y188]	0.479
SYDLDYDSVQP [MYC_Y16_N11S]	1.73
RKTAKYLLKGE [CDH5_Y82_N79T]	0.54
PDGHEYIFVDP [PDGFRA_Y572_YF]	0.719
RNIQQHNSFVS [PRKAR1A_Y373_Y373H]	0.343
NGQALYAACQT [XDH_Y1092_V1091L]	9.92
KLPDAYERLIL [G6PD_Y437]	0.49
TVSRPYSFIEF [SEC22B_Y110]	0.403
YAKSVYWDNTL [NUP107_Y296_E298D]	0.515
ISIFHCAKGQP [MPZ_Y82_Y82C]	0.845
REGAKYVSHGT [ASS1_Y113_A118T]	0.587
ATGGFYSFGGG [KRT24_Y120_YF]	0.499
YGEYRYRSVIK [CFTR_Y517_D513G]	0.462
KNDSKYVVKGN [KIT_Y823_N822K]	0.317
VLTPKYRGGGG [HBA1_Y141_S139P]	0.372
LADKPYTFEFF [FXN_Y118_D122Y_YF]	0.683
SARVRYLMAEK [LDHB_Y173_F171V]	0.521
QLLIEYPPEEV [ZZZ3_Y670_K669E]	0.933
MECLPYGSLRD [JAK2_Y934_Y931C]	0.577
RQQEVYLLFKQ [RARRES1_Y159_D158V_YF]	0.589
NRDNTYNRVSE [FGA_Y127]	0.407
HKLSYYEYDFE [BTK_Y40]	1.38
LESILYESSVV [TRPV4_Y91_T89I]	0.719
FFNSEYGELSE [FLT4_Y1337_YF]	0.567
ESDGAYIQRMQ [CCDC137_Y125_H127Q]	0.496
WKKEIYEESST [MOCS2_Y170]	0.603
AEYGLYGAMVR [VSX2_Y222]	2.5
TFLRTYTDAMQ [TSPAN7_Y124]	0.488
LQTFRYHGHSM [PDHA1_Y289_YF]	0.61
